Data origin, for the record: patent US12178848B2

Tested on: AR42J cells
Assay: Calcium imaging with fluo4-AM
Format: cell-based
Details: 1 μg/ml FGF21, inhibitor 30 min prior and during imaging: 1 μM PD173074, 10 μM L-364,718, 10 μM U73122, 100 μM 2-APB
Procedure: AR42J cells were pre-loaded with 1 μM of the calcium indicator fluo4-AM (Life Technologies) for 30 minutes at 37° C. […] Vehicle, FGF21 (1 μg/ml) and CCK (100 pM) were delivered 10 seconds after baseline fluorescence acquisition by an automated fluid delivery mechanism and imaged for a total time of 2 minutes. […] Sample size (n) corresponds to the number of cell clusters measured with each cell cluster containing 5-20 cells.
Measurement name: block of calcium release elicited by FGF21

[[record]]
structure = "NCCOB(c1ccccc1)c1ccccc1"
value_reported = "blocked"

[[record]]
structure = "CN1C(=O)[C@@H](NC(=O)c2cc3ccccc3[nH]2)N=C(c2ccccc2)c2ccccc21"
value_reported = "not"

[[record]]
structure = "COc1ccc2c(c1)CC[C@@H]1[C@@H]2CC[C@]2(C)[C@@H](NCCCCCCN3C(=O)C=CC3=O)CC[C@@H]12"
value_reported = "blocked"

[[record]]
structure = "CCN(CC)CCCCNc1ncc2cc(-c3cc(OC)cc(OC)c3)c(NC(=O)NC(C)(C)C)nc2n1"
value_reported = "blocked"

